Let's look at some molecules and their measured viscosity.
# experiment: xn = mol fraction of the nth substance listed
# applied-conditions: 298.15 K; 101.33 kPa; x1 = 0.6
measure: viscosity (mPa·s)

CC(Cl)(Cl)Cl + O=C1CCCCC1	1.141
CC(Cl)(Cl)Cl + CCC(C)=O	0.5757
CC(Cl)(Cl)Cl + C[N+](=O)[O-]	0.6702
CC(Cl)(Cl)Cl + CC1CCCO1	0.655

====

# applied-conditions: 323.15 K; 101 kPa
Let's look at some compounds and their measured viscosity.
measure: viscosity (mPa·s)

COC(=O)c1ccccc1C(=O)OC	5.493
CCCCCBr	0.574
O=CO	0.9767
CCCCCCCCn1cc[n+](C)c1.[Cl][Fe-]([Cl])([Cl])[Cl]	46.6

Attribution: the CheMixHub viscosity set
